Reference source for all entries: paper PMC5700166

# Target under test: GST-Ap-NF-kB RHD (Exaiptasia pallida (Aiptasia), UniProt A0A913YAJ5 2-422)
# Sequence: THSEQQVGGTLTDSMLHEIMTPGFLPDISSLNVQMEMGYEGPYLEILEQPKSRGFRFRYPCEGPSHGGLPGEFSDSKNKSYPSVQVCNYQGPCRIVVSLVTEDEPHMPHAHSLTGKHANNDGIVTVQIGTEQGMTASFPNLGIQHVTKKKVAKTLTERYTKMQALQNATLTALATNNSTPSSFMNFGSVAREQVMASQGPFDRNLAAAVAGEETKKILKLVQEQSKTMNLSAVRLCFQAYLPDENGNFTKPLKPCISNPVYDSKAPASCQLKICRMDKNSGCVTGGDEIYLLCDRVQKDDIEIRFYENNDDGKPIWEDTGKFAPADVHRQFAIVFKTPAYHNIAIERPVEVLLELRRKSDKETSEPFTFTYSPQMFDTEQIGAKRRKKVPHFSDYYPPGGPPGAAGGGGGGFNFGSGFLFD
# Test summary: protein-binding microarray (PBM); PBM: ~300 nM protein, 6 mM HEPES pH 7.8, 80 mM KCl, 0.5 mM EDTA, 0.5 mM EGTA, 6% glycerol, 35 ng/ul poly-dIdC, 1% milk, 1 h, room temperature; high values mean tight binding
# Condition details: dsDNA, one strand shown
Mark criterion met for binding signal under 5 z-score, criterion not met if at or over.

[[record]]
sequence_code = "CCGATTAACATCAAAGTGTCCCCTGATGTTAATCGGGTCTTGATTCGCTTGACGCTGCTG"
assigned_class = "criterion not met"

[[record]]
sequence_code = "CCGATTAACATCAAAATTCCCGATGATGTTAATCGGGTCTTGATTCGCTTGACGCTGCTG"
assigned_class = "criterion met"

[[record]]
sequence_code = "CCGATTAACATCACCTTTTTCCCTGATGTTAATCGGGTCTTGATTCGCTTGACGCTGCTG"
assigned_class = "criterion met"

[[record]]
sequence_code = "CCGATTAACATCAAGGGGGGAGGTGATGTTAATCGGGTCTTGATTCGCTTGACGCTGCTG"
assigned_class = "criterion met"

[[record]]
sequence_code = "CCGATTAACATCAATGGGATTCCTGATGTTAATCGGGTCTTGATTCGCTTGACGCTGCTG"
assigned_class = "criterion met"

[[record]]
sequence_code = "CCGATTAACATCAAACAGCCCCCTGATGTTAATCGGGTCTTGATTCGCTTGACGCTGCTG"
assigned_class = "criterion met"

[[record]]
sequence_code = "CCGATTAACATCAAAATCCCCCCTGATGTTAATCGGGTCTTGATTCGCTTGACGCTGCTG"
assigned_class = "criterion not met"

[[record]]
sequence_code = "CCGATTAACATCAAAAAAGTACCTGATGTTAATCGGGTCTTGATTCGCTTGACGCTGCTG"
assigned_class = "criterion met"

[[record]]
sequence_code = "CCGATTAACATCAAAGATCCCCCTGATGTTAATCGGGTCTTGATTCGCTTGACGCTGCTG"
assigned_class = "criterion not met"

[[record]]
sequence_code = "CCGATTAACATCACGGGAAGTCCTGATGTTAATCGGGTCTTGATTCGCTTGACGCTGCTG"
assigned_class = "criterion met"

[[record]]
sequence_code = "CCGATTAACATCACTCTTTTCCCTGATGTTAATCGGGTCTTGATTCGCTTGACGCTGCTG"
assigned_class = "criterion met"

[[record]]
sequence_code = "CCGATTAACATCAGAGTTCCCCCTGATGTTAATCGGGTCTTGATTCGCTTGACGCTGCTG"
assigned_class = "criterion not met"

[[record]]
sequence_code = "CCGATTAACATCACGGGGGAAACTGATGTTAATCGGGTCTTGATTCGCTTGACGCTGCTG"
assigned_class = "criterion not met"

[[record]]
sequence_code = "CCGATTAACATCAGCCCCCCCCCTGATGTTAATCGGGTCTTGATTCGCTTGACGCTGCTG"
assigned_class = "criterion met"

[[record]]
sequence_code = "CCGATTAACATCAGGGGGGGTAATGATGTTAATCGGGTCTTGATTCGCTTGACGCTGCTG"
assigned_class = "criterion met"


----------
# Target under test: GST-Ap-NF-kB RHD (Exaiptasia pallida (Aiptasia), UniProt A0A913YAJ5 2-422)
# Sequence: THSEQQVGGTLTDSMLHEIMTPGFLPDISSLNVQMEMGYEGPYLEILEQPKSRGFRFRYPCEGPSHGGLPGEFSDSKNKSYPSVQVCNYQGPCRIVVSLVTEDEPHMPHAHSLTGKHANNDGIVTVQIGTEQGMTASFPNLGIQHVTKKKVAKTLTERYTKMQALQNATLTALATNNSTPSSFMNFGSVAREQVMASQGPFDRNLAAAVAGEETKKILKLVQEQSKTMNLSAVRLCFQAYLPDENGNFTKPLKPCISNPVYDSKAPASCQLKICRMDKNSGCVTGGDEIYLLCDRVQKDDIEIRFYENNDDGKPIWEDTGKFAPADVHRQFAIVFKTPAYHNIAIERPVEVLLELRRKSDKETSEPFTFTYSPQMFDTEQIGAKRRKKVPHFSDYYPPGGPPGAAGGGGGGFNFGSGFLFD
# Test summary: protein-binding microarray (PBM); PBM: ~300 nM protein, 6 mM HEPES pH 7.8, 80 mM KCl, 0.5 mM EDTA, 0.5 mM EGTA, 6% glycerol, 35 ng/ul poly-dIdC, 1% milk, 1 h, room temperature; Ap Aiptasia and Nv Nematostella (sea anemones) / Co Capsaspora / Aq Amphimedon (sponge) / Dm Drosophila / Hu human; RHD is the Rel homology domain; high values mean tight binding
# Condition details: dsDNA, one strand shown
Experimental readout: binding signal (z-score)

[[record]]
sequence_code = "CCGATTAACATCAAATTTCCCCATGATGTTAATCGGGTCTTGATTCGCTTGACGCTGCTG"
experimental_readout = "binding signal"
reported_value = 7.86

[[record]]
sequence_code = "CCGATTAACATCAGAAAATCCCCTGATGTTAATCGGGTCTTGATTCGCTTGACGCTGCTG"
experimental_readout = "binding signal"
reported_value = 10.4

[[record]]
sequence_code = "CCGATTAACATCAAATTTCCCGGTGATGTTAATCGGGTCTTGATTCGCTTGACGCTGCTG"
experimental_readout = "binding signal"
reported_value = 4.14

[[record]]
sequence_code = "CCGATTAACATCAGGCATCCCCATGATGTTAATCGGGTCTTGATTCGCTTGACGCTGCTG"
experimental_readout = "binding signal"
reported_value = 3.84

[[record]]
sequence_code = "CCGATTAACATCAGGGGAGAACCTGATGTTAATCGGGTCTTGATTCGCTTGACGCTGCTG"
experimental_readout = "binding signal"
reported_value = 6.35

[[record]]
sequence_code = "CCGATTAACATCACCCTCCCCCCTGATGTTAATCGGGTCTTGATTCGCTTGACGCTGCTG"
experimental_readout = "binding signal"
reported_value = 4.55

[[record]]
sequence_code = "CCGATTAACATCAAGAATTCCCCTGATGTTAATCGGGTCTTGATTCGCTTGACGCTGCTG"
experimental_readout = "binding signal"
reported_value = 9.76

[[record]]
sequence_code = "CCGATTAACATCATCTGGGAAAATGATGTTAATCGGGTCTTGATTCGCTTGACGCTGCTG"
experimental_readout = "binding signal"
reported_value = 1.33

[[record]]
sequence_code = "CCGATTAACATCAGAAGTTTCCCTGATGTTAATCGGGTCTTGATTCGCTTGACGCTGCTG"
experimental_readout = "binding signal"
reported_value = 4.01

[[record]]
sequence_code = "CCGATTAACATCAGGGGGATAGATGATGTTAATCGGGTCTTGATTCGCTTGACGCTGCTG"
experimental_readout = "binding signal"
reported_value = 4.85

[[record]]
sequence_code = "CCGATTAACATCACCGATTTCCCTGATGTTAATCGGGTCTTGATTCGCTTGACGCTGCTG"
experimental_readout = "binding signal"
reported_value = 2.92

[[record]]
sequence_code = "CCGATTAACATCACAAAGTCCCCTGATGTTAATCGGGTCTTGATTCGCTTGACGCTGCTG"
experimental_readout = "binding signal"
reported_value = 7.77

[[record]]
sequence_code = "CCGATTAACATCAGGGGGCATTATGATGTTAATCGGGTCTTGATTCGCTTGACGCTGCTG"
experimental_readout = "binding signal"
reported_value = 3.92

[[record]]
sequence_code = "CCGATTAACATCAACAAAGTCCCTGATGTTAATCGGGTCTTGATTCGCTTGACGCTGCTG"
experimental_readout = "binding signal"
reported_value = 4.89

[[record]]
sequence_code = "CCGATTAACATCAAATCCCCCCATGATGTTAATCGGGTCTTGATTCGCTTGACGCTGCTG"
experimental_readout = "binding signal"
reported_value = 7.89

[[record]]
sequence_code = "CCGATTAACATCAGCAAATCCCCTGATGTTAATCGGGTCTTGATTCGCTTGACGCTGCTG"
experimental_readout = "binding signal"
reported_value = 6.73

[[record]]
sequence_code = "CCGATTAACATCATGTTTGCGGGTGATGTTAATCGGGTCTTGATTCGCTTGACGCTGCTG"
experimental_readout = "binding signal"
reported_value = 1.22

[[record]]
sequence_code = "CCGATTAACATCAAAGTACCCCCTGATGTTAATCGGGTCTTGATTCGCTTGACGCTGCTG"
experimental_readout = "binding signal"
reported_value = 6.74

